Source: the supplement of paper PMC10567573

B1: ADAMTS4 (parent)
chain: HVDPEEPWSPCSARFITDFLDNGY

Variants of: B1
Assay: protein stability index of a GFP-peptide fusion (GPS, HEK-293T) (PSI 1-6); higher = more stable;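 further: lentivirally expressed fusions sorted by FACS into six bins by GFP to DsRed ratio, PSI derived from sequencing read proportions per bin multiplied by bin number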
Conditions: c terminus: a fixed tail appended

>  <variant_description>
S9A

>  <protein stability index>
2.05

$$$$
>  <variant_description>
S12R

>  <protein stability index>
1.97

$$$$
>  <variant_description>
L20A

>  <protein stability index>
1.96

$$$$
